Kindly state MIC for each of the entries shown.
Tested on: Prescottella equi
Assay: Antimicrobial activity against Rhodococcus equi
Type: functional
Settings: Rhodococcus (subgen. Prescottella) equi

Give the measured MIC of CO/N=C(\C(=O)N[C@@H]1C(=O)N2C(C(=O)O)=C(CSc3nc(=O)c(O)nn3C)CS[C@H]12)c1csc(N)n1 .
0.063 to 8 µg/mL

Give the measured MIC of Cc1nnc(SCC2=C(C(=O)O)N3C(=O)[C@@H](NC(=O)Cn4cnnn4)[C@H]3SC2)s1 .
0.063 to 8 µg/mL

Give the measured MIC of CC1(C)S[C@@H]2[C@H](NC(=O)Cc3ccccc3)C(=O)N2[C@H]1C(=O)O .
0.063 to 8 µg/mL

Give the measured MIC of c1ccc(N2CCN(c3ncnc4c3Sc3nnnn3N4)CC2)cc1 .
51 to 410 µg/mL
